The reported measurements were obtained from patent US4552878A.

Kindly state ED50 for each of the entries shown.
Tested on: central effects of 5-hydroxytryptophan
Assay: Potentiation of the central effects of 5-hydroxytryptophan (5-HTP)
Format: in vivo
Settings: Mus musculus, ip; Swiss mice, I.P., 30 minutes before 300 mg/kg 5-HTP I.P.; observed 30 min later for 1 min; read-out: Potentiation of the 5-HTP ED50 DE50
Structures can show the parent of a compound that is named as a salt.
Answers are plain numbers, in mg/kg.

Here's what some known entries look like.
COc1ccc(N2CCN(CCCn3nnc4ccccc4c3=O)CC2)cc1	11
O=c1c2ccccc2nnn1CCCN1CCN(c2cccc(Cl)c2)CC1 [Example 1, hydrochloride]	3
Cc1ccc2nnn(CCCN3CCN(c4cccc(Cl)c4)CC3)c(=O)c2c1 [Example 20, hydrochloride]	8

Each compound below has a reported value. Please supply its ED50.
1. O=c1c2ccc(Cl)cc2nnn1CCCN1CCN(c2cccc(Cl)c2)CC1 [Example 19, hydrochloride]
2. COc1cccc(N2CCN(CCCn3nnc4ccccc4c3=O)CC2)c1
3. O=c1c2cc(Cl)ccc2nnn1CCCN1CCN(c2ccccc2)CC1
4. O=c1c2ccccc2nnn1CCCN1CCN(c2ccc(F)c(Cl)c2)CC1 [Example 27, hydrochloride]

1: 10; 2: 9; 3: 5; 4: 8

Each compound below has a reported value. Please supply its ED50.
1. O=c1c2ccsc2nnn1CCCN1CCN(c2cccc(Cl)c2)CC1 [Example 23, hydrochloride]
2. O=c1c2ccccc2nnn1CCCN1CCN(c2cccc(F)c2)CC1 [Example 10, hydrochloride]

1. 3
2. 14
